Experiment: NCATS anti-infectives library activity on HEK293 viability as a counter-qHTS vs the C. elegans viability qHTS (AID 1745854);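 also: HEK293 cells exposed to compounds for 24 hr before the viability read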
Details: HEK293 viability counter-screen; series mostly up to 41.8 µM
Records with an inconclusive call do not appear. Calls of active or inactive are those of the source. Calls follow the shape of the dose curve; as a rule, active = well fitted cell-killing curve with a large enough effect; inconclusive = small, poorly fitted or top-dose-only effect; inactive = flat fitted curve, though single readings scatter.
property label: outcome

>>> df
                                   compound    result
0  O=C(/C=C/c1ccccc1)NC(NC(=S)Nc1cccc2cccnc12)C(Cl)(Cl)Cl (stereo not drawn)  inactive
1  OC[C@H]1O[C@@H](O[C@@H]2OC=C[C@H]3[C@H](O)[C@@H]4O[C@]4(CO)[C@@H]23)[C@H](O)[C@@H](O)[C@@H]1O  inactive
2  CCOC(=O)c1cccc(CNc2ccc(N(C)C(=O)Nc3ccccc3)cc2)c1  inactive
